Assay: gradient 5% acetonitrile 3 min, to 50% in 2 min, to 85% in 15 min, held 3 min, 100 µL/min
Conditions: column: Zorbax Extend-C18 2.1 x 50 mm; eluents: water / acetonitrile, 0.1% formic acid

>  <compound>
Cc1cnc(-c2ccncc2)n1C1CCN(S(=O)(=O)c2ccc3c(c2)CCC3)C1 (centres undefined)

>  <RP-LC retention time, s>
605

$$$$
>  <compound>
CC(=O)NCCSc1c(-c2ccc(Cl)cc2)[nH]c2ccccc12

>  <RP-LC retention time, s>
800

$$$$
>  <compound>
Cc1ccc(NC(=O)C2CCN(C(=O)c3ncn4c3COC(c3ccc(F)cc3)C4)CC2)cc1Cl (centres undefined)

>  <RP-LC retention time, s>
901

$$$$
>  <compound>
Cc1ccc(-c2cn3cccc(C)c3n2)cc1NS(=O)(=O)c1ccccc1

>  <RP-LC retention time, s>
672

$$$$
>  <compound>
CCc1ccc(-n2nc(CO)c(C(=O)NC3CC3)n2)cc1

>  <RP-LC retention time, s>
897

$$$$
>  <compound>
COC(=O)C(C)NC(=O)NCc1cccn1Cc1cccc(F)c1 (centres undefined)

>  <RP-LC retention time, s>
792

$$$$
>  <compound>
O=C(NCCN1CCOCC1)c1ccc2nc(Cc3ccccc3)oc2c1

>  <RP-LC retention time, s>
631

$$$$
>  <compound>
Cc1ccc(CN2CC(n3c(C)cnc3-c3ccccc3)C2)s1

>  <RP-LC retention time, s>
555

$$$$
>  <compound>
Cc1ccccc1-c1nnc(CSc2ccc(N)cc2)o1

>  <RP-LC retention time, s>
818

$$$$

---

Assay: gradient 5% acetonitrile 3 min, to 50% in 2 min, to 85% in 15 min, held 3 min, 100 µL/min
Conditions: column: Zorbax Extend-C18 2.1 x 50 mm; eluents: water / acetonitrile, 0.1% formic acid
attribute measured: RP-LC retention time (s)

>  <compound>
O=C(C1CCN(c2nnc(-c3ccccc3)o2)CC1)N1CCC2(CC1)OCCO2

>  <readout number>
701

$$$$
>  <compound>
Cn1cc(-c2cc3n(n2)CCC(=O)N3CC(=O)NC2CCCCCC2)c2ccccc21

>  <readout number>
856

$$$$
>  <compound>
Cc1cc(NC(=O)C2CCN(C(=O)c3cnn(-c4ccccc4)c3C)CC2)no1

>  <readout number>
657

$$$$
>  <compound>
CCn1cnc(S(=O)(=O)N2CCC(C(=O)Nc3ncccc3C)CC2)c1

>  <readout number>
570

$$$$
>  <compound>
Cc1nc(N2CCCC2)c2c(C(=O)Nc3cccc(C)c3C)c(C)oc2n1

>  <readout number>
756

$$$$
>  <compound>
CCn1cc(CN2CCn3c(nnc3[C@@H]3C[C@@H](O)CN3Cc3cccnc3)C2)c(C)n1

>  <readout number>
513

$$$$
>  <compound>
Cc1noc(C)c1CC(=O)NCC1Cn2cccc2C(=O)N1C (centres undefined)

>  <readout number>
598

$$$$
>  <compound>
CCc1nc(-c2csc(S(=O)(=O)N3CCC(C(=O)Nc4ccc(Cl)cc4C)CC3)c2)no1

>  <readout number>
1180

$$$$
>  <compound>
Cc1ccc2sc(N(Cc3ccccn3)C(=O)C3COc4ccccc4O3)nc2c1C (centres undefined)

>  <readout number>
1250

$$$$
>  <compound>
O=C1COc2c(CCNCCN(C(=O)CCNCCc3ccc(Cl)c(Cl)c3)C3CCCCC3)ccc(O)c2N1

>  <readout number>
691

$$$$
>  <compound>
CCCCN1CC(c2nc3ccccc3n2CC(=O)N2CCOCC2)CC1=O (centres undefined)

>  <readout number>
598

$$$$
>  <compound>
Cn1c(=O)c2c(nc3n(-c4ccc(O)cc4)c(-c4ccc(Cl)cc4)cn23)n(C)c1=O

>  <readout number>
813

$$$$
>  <compound>
Cc1cc(C)cc(NC(=O)c2c(C)oc3nc(C)nc(N4CCOCC4)c23)c1

>  <readout number>
888

$$$$
>  <compound>
COc1ccc(S(=O)(=O)N2CCC(c3cc4n(n3)CCCN(C)C4=O)CC2)cc1

>  <readout number>
720

$$$$
